biological target: UniProtKB P14842; assay: The binding affinity was evaluated on 5-hydroxytryptamine 2A receptor expressed in rat cortex by using [3H]ketanserin as radioligand.
Sequence (P14842 whole entry): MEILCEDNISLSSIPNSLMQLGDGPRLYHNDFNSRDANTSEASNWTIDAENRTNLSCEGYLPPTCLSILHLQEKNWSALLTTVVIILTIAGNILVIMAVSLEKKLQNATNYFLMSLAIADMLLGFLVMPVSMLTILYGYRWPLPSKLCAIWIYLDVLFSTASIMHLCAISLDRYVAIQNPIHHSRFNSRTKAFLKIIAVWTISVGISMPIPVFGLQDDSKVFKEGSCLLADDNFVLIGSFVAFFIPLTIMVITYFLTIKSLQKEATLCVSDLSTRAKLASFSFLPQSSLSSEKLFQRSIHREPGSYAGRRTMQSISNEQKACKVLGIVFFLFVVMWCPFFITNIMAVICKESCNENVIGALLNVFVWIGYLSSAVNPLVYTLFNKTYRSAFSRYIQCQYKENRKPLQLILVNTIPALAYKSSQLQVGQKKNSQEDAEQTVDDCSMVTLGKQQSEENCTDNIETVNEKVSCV
Where a name gives a salt, the structure may show the parent alone.

compound	operatorSymbol	pKi
COc1cccc(OC)c1OCCNCC1COc2ccccc2O1 (stereo not given) [WB-4101 hydrochloride]	=	6
COc1cccc(OC)c1OCCNCC1C(=O)c2ccccc2CC1c1ccccc1 (stereo not given)	=	6.63
COc1cccc(OC)c1OCCNCC1C(=O)c2ccccc2OC1c1ccccc1 (stereo not given)	=	6.2
CCCN(CCC)C1CCc2cccc(O)c2C1 (stereo not given)	<	6
COc1cccc(OC)c1OCCNCC1Oc2ccccc2CC1c1ccccc1 (stereo not given)	<	6

The origin of these recorded values is BindingDB's records for doi:10.1021/jm9910324.
